ASSAY_METHOD_TEXT: Crystal transformation of fluvatinib mesylate crystalline forms stirred in ethanol, XRPD
Assay type: physicochemical
STATED_CONDITIONS: ethanol, stirred 2 days at room temperature
Structures can show the parent of a compound that is named as a salt.
ASSAY_ENDPOINT: crystal transformation in ethanol

MOLECULE	ASSAY_ENDPOINT	MEASURED
COc1cc2nccc(Oc3ccc(NC(=O)NC4CC4)c(Cl)c3F)c2cc1C(N)=O [crystalline form II of fluvatinib mesylate] [fluvatinib methanesulfonate]	crystal transformation in ethanol	converted to Form III
COc1cc2nccc(Oc3ccc(NC(=O)NC4CC4)c(Cl)c3F)c2cc1C(N)=O [crystalline form VII of fluvatinib mesylate] [fluvatinib methanesulfonate]	crystal transformation in ethanol	converted to Form III
COc1cc2nccc(Oc3ccc(NC(=O)NC4CC4)c(Cl)c3F)c2cc1C(N)=O [crystalline form VI of fluvatinib mesylate] [fluvatinib methanesulfonate]	crystal transformation in ethanol	converted to Form III
